- System: Staphylococcus epidermidis EPI1
- RUN DESCRIPTION: MIC, standard agar-dilution assay, Staphylococcus epidermidis EPI1
- Format: cell-based
- CONDITIONS: Staphylococcus epidermidis EPI1; agar dilution; read-out: MIC
The label yes (1) is reserved for MIC strictly under 1 µg/mL; no (0) covers values equal to or above it.

# count of solved cases: 3
CCC1OC(=O)CC(O)C(C)C(OC2OC(C)C(OC3CC(C)(O)C(O)C(C)O3)C(N(C)C)C2O)C(CCOc2ccc(C(=O)c3ccccc3)cc2)CC(C)C(=O)C=CC(C)=CC1COC1OC(C)C(O)C(OC)C1OC (centres unmarked)
no (0)
CCOC(=O)C1CSC(CC2CC(C)C(=O)C=CC(C)=CC(COC3OC(C)C(O)C(OC)C3OC)C(CC)OC(=O)CC(O)C(C)C2OC2OC(C)C(O)C(N(C)C)C2O)N1 (centres unmarked)
yes (1)
CCC1OC(=O)CC(O)C(C)C(OC2OC(C)C(O)C(N(C)C)C2O)C(CCCl)CC(C)C(=O)C=CC(C)=CC1COC1OC(C)C(O)C(OC)C1OC (centres unmarked)
yes (1)

Asked: Please let me know if CCC1OC(=O)CC(O)C(C)C(OC2OC(C)C(O)C(N(C)C)C2O)C(CCSc2nnnn2C)CC(C)C(=O)C=CC(C)=CC1COC1OC(C)C(O)C(OC)C1OC (centres unmarked) shows MIC below 1 µg/mL.
Given back: yes (1)

====

- System: Staphylococcus aureus
- RUN DESCRIPTION: MIC, broth-dilution microtiter test, Staphylococcus aureus
- Assay type: cell-based
MEASURED PARAMETER: MIC (µg/mL)
Value expressed in µg/mL; do not type the unit.

Below: 4 compounds and their reported MIC.
CCC1OC(=O)CC(O)C(C)C(OC2OC(C)C(O)C(N(C)C)C2O)C(CCOC(C(F)(F)F)C(F)(F)F)CC(C)C(=O)C=CC(C)=CC1COC1OC(C)C(O)C(OC)C1OC (centres unmarked)
0.78
CCC1OC(=O)CC(O)C(C)C(OC2OC(C)C(OC3CC(C)(O)C(O)C(C)O3)C(N(C)C)C2O)C(CCOc2ccc(OC)cc2)CC(C)C(=O)C=CC(C)=CC1COC1OC(C)C(O)C(OC)C1OC (centres unmarked)
1.56
CCC1OC(=O)CC(O)C(C)C(OC2OC(C)C(O)C(N(C)C)C2O)C(CCOc2cccc(N(C)C)c2)CC(C)C(=O)C=CC(C)=CC1COC1OC(C)C(O)C(OC)C1OC (centres unmarked)
6.25
CCOC(=O)C1CSC(CC2CC(C)C(=O)C=CC(C)=CC(COC3OC(C)C(O)C(OC)C3OC)C(CC)OC(=O)CC(O)C(C)C2OC2OC(C)C(O)C(N(C)C)C2O)N1 (centres unmarked)
0.78

Turning now to a further record.
What the record says about CCC1OC(=O)CC(O)C(C)C(OC2OC(C)C(OC3CC(C)(O)C(O)C(C)O3)C(N(C)C)C2O)C(CCOS(=O)(=O)c2ccc(C)cc2)CC(C)C(=O)C=CC(C)=CC1COC1OC(C)C(O)C(O)C1OC (centres unmarked) : MIC is 3.12

====

Listed below: MIC values for each entry.
- System: Mycoplasma hyorhinis
- RUN DESCRIPTION: MIC, broth-dilution microtiter test, Mycoplasma hyorhinis
- Format: cell-based
- CONDITIONS: Mycoplasma hyorhinis; broth-dilution microtiter
Value expressed in µg/mL; do not type the unit.

Below: 2 molecules and their reported MIC.
CCC1OC(=O)CC(O)C(C)C(OC2OC(C)C(O)C(N(C)C)C2O)C(CCOc2ccc(Oc3ccccc3)cc2)CC(C)C(=O)C=CC(C)=CC1COC1OC(C)C(O)C(OC)C1OC (stereo not shown) [Compound 47, 20-DH-20-O-(p-Phenoxyphenyl)desmycosin]
6.25
CCC1OC(=O)CC(O)C(C)C(OC2OC(C)C(O)C(N(C)C)C2O)C(CCOc2ncnc3ccccc23)CC(C)C(=O)C=CC(C)=CC1COC1OC(C)C(O)C(OC)C1OC (stereo not shown) [Compound 51, 20-DH-20-O-(Quinazolin-4-yl)desmycosin]
12.5

Turning now to a further record.
What the record says about CCC1OC(=O)CC(O)C(C)C(OC2OC(C)C(OC3CC(C)(O)C(O)C(C)O3)C(N(C)C)C2OC(C)=O)C(CCOc2ccccc2)CC(C)C(=O)C=CC(C)=CC1COC1OC(C)C(O)C(OC)C1OC (stereo not shown) [Compound 64, 20-DH-20-O-Phenyl-2'-O-acetyltylosin] : MIC is 50

====

- Test system: Mycoplasma synoviae
- RUN DESCRIPTION: MIC, broth-dilution microtiter test, Mycoplasma synoviae
- Format: cell-based
- CONDITIONS: Mycoplasma synoviae; broth-dilution microtiter
Listed below: MIC values for each entry.
Value expressed in µg/mL; do not type the unit.

Below: 4 molecules and their reported MIC.
CCOC(=O)NN(CCC1CC(C)C(=O)C=CC(C)=CC(COC2OC(C)C(O)C(OC)C2OC)C(CC)OC(=O)CC(O)C(C)C1OC1OC(C)C(O)C(N(C)C)C1O)C(=O)OCC (centres unmarked) [Compound 45]
6.25
CCC1OC(=O)CC(O)C(C)C(OC2OC(C)C(OC(C)=O)C(N(C)C)C2OC(C)=O)C(CCOc2ccccc2)CC(C)C(=O)C=CC(C)=CC1COC1OC(C)C(O)C(OC)C1OC (centres unmarked) [Compound 68]
3.12
CCC1OC(=O)CC(O)C(C)C(OC2OC(C)CC(N(C)C)C2O)C(CCOc2ccccc2)CC(C)C(=O)C=CC(C)=CC1COC1OC(C)C(O)C(OC)C1OC (centres unmarked) [Compound 70, 20-DH-20-O-Phenyl-4'-deoxydesmycosin]
0.78
CCC1OC(=O)CC(O)C(C)C(OC2OC(C)C(O)C(N(C)C)C2O)C(CCOc2cccnc2)CC(C)C(=O)C=CC(C)=CC1COC1OC(C)C(O)C(OC)C1OC (centres unmarked) [Compound 49, 20-DH-20-O-(Pyridin-3-yl)desmycosin]
3.12

Turning now to a further record.
What the record says about CCC1OC(=O)CC(O)C(C)C(OC2OC(C)C(O)C(N(C)C)C2O)C(CCOc2ccccc2)CC(C)C(=O)C=CC(C)=CC1COC1OC(C)C(O)C(O)C1OC (centres unmarked) [Compound 58, 20-DH-20-O-Phenyllactenocin] : MIC is 6.25

====

- Test system: Streptococcus Group 9960
- RUN DESCRIPTION: MIC, standard agar-dilution assay, Streptococcus Group 9960
- Type: cell-based
- CONDITIONS: GROUP9960; Streptococcus Group 9960; agar dilution; read-out: MIC
MEASURED PARAMETER: MIC (µg/mL)
Value expressed in µg/mL; do not type the unit.

Below: 8 compounds and their reported MIC.
CCC1OC(=O)CC(O)C(C)C(OC2OC(C)C(O)C(N(C)C)C2O)C(CCOc2ccc(C=O)cc2)CC(C)C(=O)C=CC(C)=CC1COC1OC(C)C(O)C(OC)C1OC (stereo not drawn) [Compound 36, 20-DH-20-O-(p-formylphenyl)desmycosin]
8
CCC1CC(C)C(=O)C=CC(C)=CC(COC2OC(C)C(O)C(O)C2OC)C(CC)OC(=O)CC(O)C(C)C1OC1OC(C)C(O)C(N(C)C)C1O (stereo not drawn) [Compound 60, 20-DH-DO-Lactenocin]
8
CCC1OC(=O)CC(O)C(C)C(OC2OC(C)C(OC3CC(C)(O)C(O)C(C)O3)C(N(C)C)C2O)C(CCSc2nnnn2C)CC(C)C(=O)C=CC(C)=CC1COC1OC(C)C(O)C(OC)C1OC (stereo not drawn) [Compound 5]
128
CCC1OC(=O)CC(O)C(C)C(OC2OC(C)C(O)C(N(C)C)C2O)C(CC2OCCO2)CC(C)C(=O)C=CC(C)=CC1COC1OC(C)C(O)C(OC)C1OC (stereo not drawn) [Compound 74]
8
CCC1OC(=O)CC(O)C(C)C(OC2OC(C)C(O)C(N(C)C)C2O)C(CCOCCc2ccccc2)CC(C)C(=O)C=CC(C)=CC1COC1OC(C)C(O)C(OC)C1OC (stereo not drawn) [Compound 31, 20-DH-20-O-(Phenethyl)desmycosin]
16
CCC1OC(=O)CC(O)C(C)C(OC2OC(C)C(O)C(N(C)C)C2O)C(CCSc2nnnn2C)CC(C)C(=O)C=CC(C)=CC1COC1OC(C)C(O)C(OC)C1OC (stereo not drawn) [Compound 24]
32
CCC1OC(=O)CC(O)C(C)C(OC2OC(C)C(OC3CC(C)(O)C(O)C(C)O3)C(N(C)C)C2O)C(CCNC(=O)Cc2ccccc2)CC(C)C(=O)C=CC(C)=CC1COC1OC(C)C(O)C(OC)C1OC (stereo not drawn) [Compound 3]
64
CCC1OC(=O)CC(O)C(C)C(OC2OC(C)C(O)C(N(C)C)C2O)C(CCSc2ccccc2)CC(C)C(=O)C=CC(C)=CC1COC1OC(C)C(O)C(OC)C1OC (stereo not drawn) [Compound 23, 20-DH-DO-20-(phenylthio)desmycosin]
16

What the record says about CCC1OC(=O)CC(O)C(C)C(OC2OC(C)C(O)C(N(C)C)C2O)C(CCOc2cccc(N(C)C)c2)CC(C)C(=O)C=CC(C)=CC1COC1OC(C)C(O)C(OC)C1OC (stereo not drawn) [Compound 39] : MIC is 8

What the record says about CCC1OC(=O)CC(O)C(C)C(OC2OC(C)C(OC3CC(C)(O)C(O)C(C)O3)C(N(C)C)C2O)C(CCOC(=O)c2nn(CC)c3cc4c(cc3c2=O)OCO4)CC(C)C(=O)C=CC(C)=CC1COC1OC(C)C(O)C(OC)C1OC (stereo not drawn) [Compound 10, 20-DH-20-O-Cinoxacinyltylosin] : MIC is 8

What the record says about CCC1OC(=O)CC(O)C(C)C(OC2OC(C)C(O)C(N(C)C)C2O)C(CCOc2ccc([N+](=O)[O-])cc2)CC(C)C(=O)C=CC(C)=CC1COC1OC(C)C(O)C(OC)C1OC (stereo not drawn) [Compound 34, 20-DH-20-O-(p-Nitrophenyl)desmycosin] : MIC is 8

What the record says about CCC1OC(=O)CC(O)C(C)C(OC2OC(C)C(OC3CC(C)(O)C(O)C(C)O3)C(N(C)C)C2O)C(CCN2C(=O)c3ccccc3C2=O)CC(C)C(=O)C=CC(C)=CC1COC1OC(C)C(O)C(OC)C1OC (stereo not drawn) [Compound 1, 20-DH-DO-20-N-Phthalimidotylosin] : MIC is 128

What the record says about CCC1OC(=O)CC(O)C(C)C(OC2OC(C)C(OC3CC(C)(O)C(O)C(C)O3)C(N(C)C)C2O)C(CCOC(=O)COc2ccccc2)CC(C)C(=O)C=CC(C)=CC1COC1OC(C)C(O)C(OC)C1OC (stereo not drawn) [Compound 11, 20-DH-20-O-(Phenoxyacetyl)tylosin] : MIC is 8

What the record says about CCOC(=O)c1ccc(OCCC2CC(C)C(=O)C=CC(C)=CC(COC3OC(C)C(O)C(OC)C3OC)C(CC)OC(=O)CC(O)C(C)C2OC2OC(C)C(O)C(N(C)C)C2O)cc1 (stereo not drawn) [Compound 38] : MIC is 16
